Values were extracted from the RepoRT retention time repository.

- ASSAY: RP, Waters ACQUITY Premier BEH C18, 100 × 2.1 mm, 1.7 µm, 40 °C, 0.3 to 0.4 mL/min, estimated dead time 0.73 min; A: water + 0.1% formic acid; B: acetonitrile + 0.1% formic acid; gradient (min/%B) 0/0.5 0.1/0.5 10/80 10.1/99.5 12/0.5 12.1/0.5 14.5/0.5
- STATED CONDITIONS: stereoisomer not certain
METRIC: LC retention time (min)
# output: bare number, implied unit min

Sample records with LC retention time:
* O=C(O)c1ccc[nH]1 [PYRROLE-2-CARBOXYLATE] | 4.38
* CC1OC(O)C(O)C(O)C1O (configuration not stated) | 0.913
* O=c1cc[nH]c2c(O)cccc12 | 4.14
* CC1CCC2(C(=O)O)CCC3(C)C(=CCC4C5(C)CC(O)C(O)C(C)(CO)C5CCC43C)C2C1C (configuration not stated) | 7.17
* CCCCCCCCCCCC(O)CC(=O)O (configuration not stated) [3-HYDROXYTETRADECANOIC ACID] | 8.11

Ask: Give the measured LC retention time of CC(=O)NC1C(O)CC(O)(C(=O)O)OC1C(O)C(O)CO (configuration not stated) [N-ACETYLNEURAMINATE] .
Reply: 0.9

Ask: Now consider OCC1OC(OC2OC(CO)C(O)C(O)C2O)C(O)C(O)C1O (configuration not stated) .
Reply: 0.911

Ask: Now consider CCCCCCCCCCCCCC=CC(O)C(N)CO (configuration not stated) .
Reply: 7.39

Ask: Now consider O=C(O)Cc1ccccc1O [ORTHO-HYDROXYPHENYLACETIC ACID] .
Reply: 4.97

Ask: Now consider O=Cc1ccc(O)c(O)c1 [3,4-DIHYDROXYBENZALDEHYDE] .
Reply: 3.49

Ask: Now consider Cc1cn(C2CC(O)C(CO)O2)c(=O)[nH]c1=O (configuration not stated) .
Reply: 3.56

Ask: Now consider O=C(O)CCCCCCCCCCCCCCCO [16-HYDROXY HEXADECANOIC ACID] .
Reply: 7.82

Ask: Now consider CC(=CC(=O)O)C(=O)O [2-METHYLMALEATE] .
Reply: 3.29

Ask: Now consider CC1CNC(=O)NC1=O (configuration not stated) [DIHYDROTHYMINE] .
Reply: 1.26

====

- ASSAY: RP, Waters ACQUITY Premier BEH C18, 100 × 2.1 mm, 1.7 µm, 40 °C, 0.3 to 0.4 mL/min, estimated dead time 0.73 min; A: water + 0.1% formic acid; B: acetonitrile + 0.1% formic acid; gradient (min/%B) 0/0.5 0.1/0.5 10/80 10.1/99.5 12/0.5 12.1/0.5 14.5/0.5
- STATED CONDITIONS: stereoisomer not certain
Each entry gets rule not met if its LC retention time stays under 4 min, and rule met if its LC retention time is 4 min or above.

For orientation, consider the following solved cases.
• OCCc1c[nH]c2ccccc12 = rule met
• Nc1ncnc2c1ncn2C1CC(O)C(CO)O1 (stereo not drawn) = rule not met
• O=C(O)C1CCCCN1 (stereo not drawn) [PIPECOLATE] = rule not met
• CCCCCCCCCCCCCC(=O)OCC(O)CO (stereo not drawn) [GLYCEROL-MYRISTATE] = rule met
• C[N+](C)(C)C(Cc1c[nH]c2ccccc12)C(=O)[O-] (stereo not drawn) = rule not met
• CCCCCCCCCC(=O)OCC(COP(=O)([O-])OCC[N+](C)(C)C)OC(=O)CCCCCCCCC (stereo not drawn) = rule met
• COc1ccc(-c2coc3cc(O)ccc3c2=O)cc1 = rule met
• Nc1nc2c(ncn2C2OC3COP(=O)(O)OC3C2O)c(=O)[nH]1 (stereo not drawn) = rule not met
• COc1cc(C=CC(=O)O)cc(OC)c1O = rule met
• CC(=O)OCC(=O)C1(O)CCC2C3CCC4=CC(=O)CCC4(C)C3C(O)CC21C (stereo not drawn) [CORTISOL 21-ACETATE] = rule met

Ask: Threshold query (LC retention time >= 4 min) on "NCCc1c[nH]c2ccc(O)cc12"
Reply: rule not met

Ask: Now consider C=C1CC23CC1(O)CCC2C12C=CC(O)C(C)(C(=O)O1)C2C3C(=O)O (stereo not drawn) .
Reply: rule met

Ask: Now consider NCCc1cc(O)c(O)cc1O [6-HYDROXYDOPAMINE] .
Reply: rule not met

====

- ASSAY: RP, Waters ACQUITY Premier BEH C18, 100 × 2.1 mm, 1.7 µm, 40 °C, 0.3 to 0.4 mL/min, estimated dead time 0.73 min; A: water + 0.1% formic acid; B: acetonitrile + 0.1% formic acid; gradient (min/%B) 0/0.5 0.1/0.5 10/80 10.1/99.5 12/0.5 12.1/0.5 14.5/0.5
- STATED CONDITIONS: stereoisomer not certain
Each entry gets Not satisfied if its LC retention time stays under 4 min, and Satisfied if its LC retention time is 4 min or above.

For orientation, consider the following solved cases.
- Nc1ccn(C2CC(O)C(CO)O2)c(=O)n1 (stereo not drawn): Not satisfied
- Cc1ncc(CO)c(C(=O)O)c1O [4-PYRIDOXATE]: Not satisfied
- CCCOC(=O)c1ccc(O)cc1: Satisfied
- O=c1[nH]c(=O)c2ncn(C3OC(CO)C(O)C3O)c2[nH]1 (stereo not drawn): Not satisfied
- O=C1CCCCO1: Satisfied

Ask: Threshold query (LC retention time >= 4 min) on O=C(O)C(=O)Cc1ccccc1 [PHENYLPYRUVATE]
Reply: Satisfied

Ask: Now consider "NCCc1ccc(O)cc1" .
Reply: Not satisfied
